This collection of values is drawn from patent US8470810B2.

# experimental.target: human dopamine D3 receptors (Homo sapiens, UniProt P35462)
# Sequence (P35462 whole entry): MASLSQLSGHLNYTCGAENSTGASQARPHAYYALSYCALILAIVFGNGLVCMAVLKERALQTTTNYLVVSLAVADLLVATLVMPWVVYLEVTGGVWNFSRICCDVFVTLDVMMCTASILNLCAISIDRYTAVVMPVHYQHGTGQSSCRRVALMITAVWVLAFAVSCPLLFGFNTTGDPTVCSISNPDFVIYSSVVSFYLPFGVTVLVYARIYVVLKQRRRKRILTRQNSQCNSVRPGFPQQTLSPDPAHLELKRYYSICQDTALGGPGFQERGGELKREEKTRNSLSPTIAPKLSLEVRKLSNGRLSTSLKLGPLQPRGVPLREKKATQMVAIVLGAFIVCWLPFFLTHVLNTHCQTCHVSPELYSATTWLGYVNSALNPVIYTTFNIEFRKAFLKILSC
pKi: −log10 of the molar value.
quantity: pKi

compound | experimental.target | result
C[C@@H](CF)c1ccc(S(=O)(=O)Nc2ccc([C@@H]3CCNC3)cc2)cc1 | human dopamine D3 receptors (Homo sapiens, UniProt P35462) | 8.18
CCCN1CC(c2ccc(NS(=O)(=O)c3ccc(CCF)cc3)cc2)C1 | human dopamine D3 receptors (Homo sapiens, UniProt P35462) | 7.61
CC(C)c1ccc(S(=O)(=O)Nc2ccc([C@@H]3CCNC3)cc2)cc1 | human dopamine D3 receptors (Homo sapiens, UniProt P35462) | 8.64
CCCN1CC[C@@H](c2ccc(NS(=O)(=O)c3ccc(C(CF)CF)cc3)cc2)C1 | human dopamine D3 receptors (Homo sapiens, UniProt P35462) | 8.89
CCCN1CC[C@@H](c2ccc(NS(=O)(=O)c3ccc([C@H](C)CF)cc3)cc2)C1 | human dopamine D3 receptors (Homo sapiens, UniProt P35462) | 9.26
CCCN1CC[C@@H](c2ccc(NS(=O)(=O)c3ccc(OC(F)F)cc3)cc2)C1.Cl [Example 9, hydrochloride] | human dopamine D3 receptors (Homo sapiens, UniProt P35462) | 8.59
CC(C)c1ccc(S(=O)(=O)Nc2ccc([C@@H]3CCN(CCF)C3)cc2)cc1 | human dopamine D3 receptors (Homo sapiens, UniProt P35462) | 9.08
CCCN1CC[C@@H](c2ccc(NS(=O)(=O)c3ccc(OC(F)(F)F)cc3)cc2)C1.Cl [Example 7, hydrochloride] | human dopamine D3 receptors (Homo sapiens, UniProt P35462) | 8.46
